The measured values listed here are drawn from the RNAGym collection of RNA variant scans (doi:10.1038/s41586-018-0170-7).

In this section, each of the variants is paired with its reported yeast fitness (ln).
B1: tRNA (parent)
chain: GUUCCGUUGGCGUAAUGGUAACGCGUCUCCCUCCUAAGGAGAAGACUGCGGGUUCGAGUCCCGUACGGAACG

# Variants of: B1
# PROCEDURE_TEXT: yeast fitness, log relative to wild type (ln ratio); higher = fitter; tRNA-Arg(CCU), competitive growth, 37 C, 1 M NaCl
MEASURED_PARAMETER: yeast fitness (ln)

>>> observed("GUUCCUUUGGCGUAAUGGUAACGCGUUUCCCUCCUAAGGAGACGAUUGCGGGUUCGAGUCCCGUAAGGAUUG [G6U C27U A43C C46U C66A A70U C71U]")
-0.357
>>> observed("GUUCCAUUGGCGUAAUGGUAACGCGUCUCCCUCCUAAGGAGACGACUGCGGGUUCGAGUCCCGUACGGGGCG [G6A A43C A69G A70G]")
-0.26
>>> observed("GCUCCGUUGGCGUAAUGGUAACGCGUCUCCCUCCUAAGGAGAAGACUGCGGGUUCGAGUCCCGUAAGGGGUG [U2C C66A A69G A70G C71U]")
-0.105
>>> observed("AUUCCUUUGGCGUAAUGGUAACGCGUCUCCCUCCUAAGGAGACGAUUGCGGGUUCGAGUCCCGUAAGGAUUG [G1A G6U A43C C46U C66A A70U C71U]")
-0.334
>>> observed("GUUCCGUUGGCGUAAUGGUAACGCGUCUCCCUCCUAAGGAGAAGAUUGCGGGUUCGAGUCCCGUACGGGGCG [C46U A69G A70G]")
-0.0172
>>> observed("GGUCCGUUGGCGUAAUGGUAACGCGUUUCCCUCCUAAGGAGAAGACUGCGGGUUCGAGUCCCGUAUGGAGCG [U2G C27U C66U A70G]")
-0.147
>>> observed("AGUCCAUUGGCGUAAUGGUAACGCGUUUCCCUCCUAAGGAGAAGAUUGCGGGUUCGAGUCCCGUAUGGAACG [G1A U2G G6A C27U C46U C66U]")
-0.258
>>> observed("ACUCCUUUGGCGUAAUGGUAACGCGUCUCCCUCCUAAGGAGAAGAUUGCGGGUUCGAGUCCCGUAAGGAUCG [G1A U2C G6U C46U C66A A70U]")
-0.184
>>> observed("GUUCCGUUGGCGUAAUGGUAACGCGUCUCCCUCCUAAGGAGACGACUGCGGGUUCGAGUCCCGUAAGGAUUG [A43C C66A A70U C71U]")
-0.268
>>> observed("AGUCCUUUGGCGUAAUGGUAACGCGUUUCCCUCCUAAGGAGACGACUGCGGGUUCGAGUCCCGUACGGGUUG [G1A U2G G6U C27U A43C A69G A70U C71U]")
-0.494
